molecular target: UniProt P35414; test: [35S]GTPγS binding assay on membranes from CHO cells stably expressing human APJ receptor; type: biochemical; conditions: Activity hAPJ SPA EC50 IP (μM)
Sequence (P35414 whole entry): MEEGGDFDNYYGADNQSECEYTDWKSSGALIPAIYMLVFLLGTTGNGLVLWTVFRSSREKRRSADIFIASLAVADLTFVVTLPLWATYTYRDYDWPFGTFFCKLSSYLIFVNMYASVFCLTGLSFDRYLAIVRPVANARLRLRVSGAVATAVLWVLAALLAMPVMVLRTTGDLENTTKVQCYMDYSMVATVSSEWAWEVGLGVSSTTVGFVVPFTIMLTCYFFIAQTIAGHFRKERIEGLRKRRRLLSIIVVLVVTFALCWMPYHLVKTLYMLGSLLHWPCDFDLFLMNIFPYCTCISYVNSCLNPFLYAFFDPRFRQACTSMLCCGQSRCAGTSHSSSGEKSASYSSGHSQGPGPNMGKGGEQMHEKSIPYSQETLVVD
test_readout: log10 EC50 (log10 of the value in µM)

| molecule | measured |
| --- | --- |
| COc1cccc(-c2nnc(NS(=O)(=O)C[C@H](O)c3ccc(F)cc3S(C)(=O)=O)n2-c2c(OC)cccc2OC)n1 (mixture of isomers) [Example 267.0] | -3.82 |
| COc1cnc([C@H](O)[C@@H](C)S(=O)(=O)Nc2nnc(-c3cccnc3)n2-c2c(OC)cccc2OC)cn1 (mixture of isomers) [Example 703.0] | -2.70 |
| COc1cccc(-c2nnc(NS(=O)(=O)CCc3ccc(C#N)cn3)n2-c2c(OC)cccc2OC)n1 [Example 550.0] | -3.10 |
| CC#C[C@@H](O)[C@H](C)S(=O)(=O)Nc1nnc(-c2cncc(C)c2)n1-c1c(OC)cccc1OC (racemic) [Example 764.0] | -1.57 |
| COc1cccc(OC)c1-n1c(NS(=O)(=O)[C@@H](C)[C@H](C)c2ncc(C#N)cn2)nnc1-c1cncc(C)c1 [Example 697.0] | -3.15 |
| COc1cccc(-c2nnc(NS(=O)(=O)C[C@H](O)c3ccc(F)cn3)n2-c2c(OC)cccc2OC)n1 (mixture of isomers) [Example 315.0] | -3.49 |
